Measured values drawn from ChEMBL document CHEMBL1201862 for this set.

Could you please report measured GI50 for the items listed next?
Tested on: OVCAR-4
Experiment: NCI tumour cell line growth inhibition, 48 h
The source made the active and inactive calls. Rule as the data show it: active = GI50 up to about 1.1 µM and inactive = higher.

Can you look up the measured GI50 of "O=C(Nc1ccccc1)OCCN=c1c2ccccc2ccc2ccccc12" for me?
25.8 µM (inactive)

Endpoint output: GI50 of COc1c(OC(C)=O)cc2c(OC(C)=O)c1CC(C)CC(OC)C(O)C(C)/C=C(\C)C(OC(N)=O)C(OC)/C=C\C=C(/C)C(=O)N2 (stereo not drawn) . Value?
> 100 µM (inactive)

Given "COC(=O)c1cc(O)c(O)c(O)c1-c1c(O)c(O)c(O)c(SC[C@H](NC(=O)OCc2ccccc2)C(=O)OCc2ccccc2)c1C(=O)OC" , state its recorded GI50.
26.5 µM (inactive)

Which value of GI50 has been reported for "C=CC[C@H](C)CCC(=O)N1[C@H]2CC3CC[C@@]2(CS1(=O)=O)C3(C)C" in the records?
39.5 µM (inactive)

I'd like to know its GI50. The compound in question is "O=c1[nH]n(Cc2ccccc2CCl)c2ccc([N+](=O)[O-])cc12"
37.1 µM (inactive)

I have this compound here, "Cc1cc(C(=O)CBr)c(CN2C(=O)c3ccccc3C2=O)c(=O)n1C" , and I need its recorded GI50.
14.7 µM (inactive)

So what's the measured GI50 for this one? "CS(=O)(=O)OCCCSCCSCCCOS(C)(=O)=O"
> 100 µM (inactive)

Param item = "O=C(Nc1ccccc1-c1nn(CO)c(=S)n(CO)c1=O)C(F)(F)F" ; retrieve measured GI50.
> 100 µM (inactive)

Field request: GI50 | item: "COc1ccc(Oc2cnn(C(Br)(Br)C(C)=O)c(=O)c2Br)cc1"
17.4 µM (inactive)

Which GI50 is reported for this compound? "C[C@@H](NC(=O)[C@@H]1C[C@]1(C)COC(=O)c1cc([N+](=O)[O-])cc([N+](=O)[O-])c1)c1cccc2ccccc12"
> 100 µM (inactive)

May I ask what GI50 has been recorded for "O=C1Nc2ccccc2/C1=c1\[nH]c(=O)/c(=C\c2ccc(OCc3ccccc3)cn2)[nH]c1=O" ?
72.4 µM (inactive)

Which GI50 value is on record for "CN(C)/C=N/NC(=O)/C(C#N)=C/N(C)C" ?
> 100 µM (inactive)

Return reported GI50; argument: "ON=C1CCCCC(=NO)CCCC1"
> 100 µM (inactive)

Data request, read-out GI50, for "O=C1C(O)=C(CN(CCCl)CCCl)C(=O)c2ccccc21"
> 100 µM (inactive)

So what does the record say about GI50 for "COc1ccc(OC)c(-c2cc(O)c3cc4c(cc3n2)OCO4)c1" ?
35.6 µM (inactive)

Which measured GI50 value corresponds to CC(=O)OC1=C2CC[C@@H]3C(CC[C@@]4(C)C3CC[C@@H]4OC(C)=O)[C@@]2(C)CC(C#N)C1=O (stereo partly drawn) ?
24.4 µM (inactive)

Give its GI50 value. Item: Cc1nnc(N)nc1C/C=C/C(C)Sc1ccc(Cl)cc1 (stereo not drawn)
10.1 µM (inactive)

Reported GI50, compound COC(=O)CN(CC1O[C@@H]2OC(C)(C)O[C@@H]2C1N=[N+]=[N-])C(=O)OCc1ccccc1 (stereo partly drawn) : ____
> 100 µM (inactive)

Can you share its GI50? I mean this compound: "CC1(C)C(=O)/C(=C/c2ccccc2)C(C)(C)C1(C)C"
> 75.3 µM (inactive)

Looking for the measured GI50 of O=S(=O)(C1=CC(S(=O)(=O)c2ccccc2)COC1)c1ccccc1 (stereo not drawn) , can you help?
> 100 µM (inactive)

Given "O=[N+]([O-])/C(C(Cl)=C(Cl)Cl)=C1\Nc2ccccc2O1" , state its recorded GI50.
33.8 µM (inactive)

// returns reported GI50 for input "COn1cc(C=O)c2ccccc21"
> 50.5 µM (inactive)

Name the reported GI50 value associated with the compound "O=C1/C(=C/c2cccc([N+](=O)[O-])c2)N=C(c2ccccc2)N1c1ccc2c(c1)Sc1cc(N3C(=O)/C(=C/c4cccc([N+](=O)[O-])c4)N=C3c3ccccc3)ccc1N2"
18.7 µM (inactive)
